Would you mind telling me the reported inhibition at 1 mg/kg of each entry?
- System: plasma renin activity
- test: Ex vivo plasma renin activity (PRA) test after oral administration
- Type: in vivo, Macaca fascicularis
- assay_setup: Macaca fascicularis, po, 4 h, read-out: Macaca fascicularis plasma renin activity, PPA inhibitory activity (%, n = 3-7)
Structures can show the parent of a compound that is named as a salt.
# number only, unit % dropped from output

Identify inhibition at 1 mg/kg associated with the molecule COCCCCn1c(C(=O)N(CC2CC2)[C@@H]2CNC[C@H](C(=O)N3CCOCC3)C2)nc2ccccc21 [Example 253, dihydrochloride] 77

Identify inhibition at 1 mg/kg associated with the molecule COCCCCn1c(C(=O)N(CC(C)C)[C@@H]2CNC[C@H](C(C)O)C2)nc2ccccc21 (stereo partly drawn) [Example 42, dihydrochloride] 70

Identify inhibition at 1 mg/kg associated with the molecule COCCCCn1c(C(=O)N(CC(C)C)[C@@H]2CNC[C@H](C(N)=O)C2)nc2ccccc21 [Example 25, dihydrochloride] 79
